Cited source: patent US10226448B2

Could you please report measured inhibition at 10 µM for the items listed next?
- Test system: Wnt activity (Sp5-Luc reporter, TCF/LEF binding sites) in SW480 colon carcinoma cells
- test: Wnt activity screening assay: Sp5-Luc reporter gene assay in SW480 cells
- Type: cell-based
- conditionNotes: Homo sapiens, SW480; read-out: percent inhibition at 10 μM
Hi! Could you send only the number? It should be in %, unit omitted.

[ask] // fetch Wnt activity (Sp5-Luc reporter, TCF/LEF binding sites) in SW480 colon carcinoma cells inhibition at 10 µM for "Nc1cncc(-c2cnc3[nH]nc(-c4cc5c(-c6ccncc6)nccc5[nH]4)c3c2)c1"
[reply] 9.3

[ask] Form entry - test system: Wnt activity (Sp5-Luc reporter, TCF/LEF binding sites) in SW480 colon carcinoma cells; read-out: inhibition at 10 µM; molecule: "CCNCc1cncc(-c2cnc3[nH]nc(-c4cc5c(-c6cc(F)cc(CNS(C)(=O)=O)c6)nccc5[nH]4)c3c2)c1"
[reply] 8.8

[ask] Tell me reported inhibition at 10 µM for "CN(C)Cc1cncc(-c2cnc3[nH]nc(-c4cc5c(N6CCCCC6)nccc5[nH]4)c3c2)c1" , tested with Wnt activity (Sp5-Luc reporter, TCF/LEF binding sites) in SW480 colon carcinoma cells.
[reply] 20.3

[ask] Missing value: inhibition at 10 µM, Wnt activity (Sp5-Luc reporter, TCF/LEF binding sites) in SW480 colon carcinoma cells, entry "Fc1cccc(-c2nccc3[nH]c(-c4n[nH]c5ncc(-c6ccncc6)cc45)cc23)c1" . Fill in?
[reply] 22.6

[ask] Form field: inhibition at 10 µM recorded for "CN1CCN(c2nccc3[nH]c(-c4n[nH]c5ncc(-c6cncc(NC(=O)C7CCCC7)c6)cc45)cc23)CC1" with Wnt activity (Sp5-Luc reporter, TCF/LEF binding sites) in SW480 colon carcinoma cells (enter value)
[reply] 43

[ask] Item: "CN1CCN(c2nccc3[nH]c(-c4n[nH]c5ncc(-c6cncnc6)cc45)cc23)CC1" Test system: Wnt activity (Sp5-Luc reporter, TCF/LEF binding sites) in SW480 colon carcinoma cells Read-out: inhibition at 10 µM Value: ?
[reply] 17.8

[ask] Give recorded inhibition at 10 µM with Wnt activity (Sp5-Luc reporter, TCF/LEF binding sites) in SW480 colon carcinoma cells for the following molecule: "c1cc(-c2cnc3[nH]nc(-c4cc5c(N6CCCCC6)nccc5[nH]4)c3c2)ccn1"
[reply] 30.8

* * *

- Tested on: IL-6 in THP-1 cells
- test: IL-6 inhibition in LPS-stimulated THP-1 human monocyte cells (HTRF)
- Assay type: cell-based
- conditionNotes: IL-6 inhibition, LPS-stimulated THP-1 cells, HTRF, 10-point dose-response starting from 10 μM
- Description: Compound Screening: THP-1 cells were cultured in basal media with 1% FBS for 24 hours before the start of the assay. […] THP-1 cells were plated at 5000 cells/well in the 384-well plates and incubated at 37° C. for 2 h. […] Following incubation for 3 hrs at room temperature, Homogeneous Time-Resolved Fluorescence (HTRF) was measured using the Envision (Perkin Elmer) at 665 nm and […]. The ratio of fluorescence at 665 nm to 620 nm was used as a readout for IL6 quantification. […]
recordedEndpoint: EC50

[ask] Using the record for O=C(Nc1cncc(-c2cnc3[nH]nc(-c4cc5cnccc5[nH]4)c3c2)c1)c1ccccc1 [Compound 263] , report its EC50.
[reply] > 10 µM

[ask] Which EC50 value belongs to Fc1ccccc1-c1nccc2[nH]c(-c3n[nH]c4ncc(-c5cncnc5)cc34)cc12 [Compound 83] ?
[reply] > 10 µM

[ask] Entry Nc1cncc(-c2cnc3[nH]nc(-c4cc5c(-c6ccncc6)nccc5[nH]4)c3c2)c1 [Compound 115] has what EC50?
[reply] > 10 µM

[ask] Can you share its EC50? I mean this compound: Fc1cccc(-c2nccc3[nH]c(-c4n[nH]c5ncc(-c6ccccn6)cc45)cc23)c1 [Compound 28]
[reply] 3.46 µM
